Data origin: patent US8999957B2

Target: fully phosphorylated, mouse aERK2 enzyme (Mus musculus (Mouse))
Sequence (P63085 whole entry): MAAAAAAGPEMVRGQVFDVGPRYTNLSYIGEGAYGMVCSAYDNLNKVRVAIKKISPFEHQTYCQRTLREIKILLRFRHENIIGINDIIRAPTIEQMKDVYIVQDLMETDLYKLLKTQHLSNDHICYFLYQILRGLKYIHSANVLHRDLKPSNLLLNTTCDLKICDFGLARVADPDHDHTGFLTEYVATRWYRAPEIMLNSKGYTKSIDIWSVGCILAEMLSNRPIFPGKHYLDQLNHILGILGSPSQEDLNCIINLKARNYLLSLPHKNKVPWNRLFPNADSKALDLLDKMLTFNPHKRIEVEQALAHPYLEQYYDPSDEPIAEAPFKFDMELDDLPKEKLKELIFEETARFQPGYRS
Test: Active ERK2 (aERK) IMAP-FP assay, condition 2
Assay type: biochemical
Details: active ERK2; read-out: aErk2 Ic50
molecules and their reported log10(IC50)
observable: log10(IC50) (log10 of the value in nM)

>>> reading("COc1cccc(F)c1CN1C[C@H](NC(=O)c2ccc3[nH]nc(-c4ccnc(C)c4)c3c2)CC[C@H]1C(=O)N(C)OC")
1.05
>>> reading("COc1cccc(F)c1CN1C[C@H](NC(=O)c2ccc3[nH]nc(-c4ccnc(C)c4)c3c2)CC[C@H]1C(=O)N1CCN(C(C)=O)CC1")
1.28
>>> reading("COCCNC(=O)[C@@H]1CC[C@@H](NC(=O)c2ccc3[nH]nc(-c4ccnc(C)c4)c3c2)CN1Cc1c(F)cccc1OC")
1.75
>>> reading("COc1cccc(F)c1CN1C[C@H](NC(=O)c2ccc3[nH]nc(-c4ccnc(C)c4)c3c2)CC[C@H]1C(N)=O")
0.00
>>> reading("COc1cccc(F)c1CN1C[C@H](NC(=O)c2ccc3[nH]nc(-c4ccnc(C)c4)c3c2)CC[C@H]1C(=O)NCCOCc1ccccc1")
2.08
>>> reading("COc1cccc(F)c1CN1C[C@H](NC(=O)c2ccc3[nH]nc(-c4ccc5nn(C)cc5c4)c3c2)CC[C@H]1C(=O)N1CC(F)(F)C1")
1.36
>>> reading("COc1cccc(F)c1CN1C[C@H](NC(=O)c2ccc3[nH]nc(-c4ccnc(C)c4)c3c2)CC[C@H]1C(=O)NN")
0.00

====

pIC50: −log10 of the molar value.
Values of pIC50 reported for UniProt:P63085 appear below.
observable: pIC50

>>> reading("COc1cccc(F)c1CN1CCCC(NC(=O)c2ccc3[nH]nc(-c4ccnc(C)c4)c3c2)C1C (stereo not shown)")
7.17
>>> reading("COc1cccc(F)c1CN1CCC[C@@H](NC(=O)c2ccc3[nH]nc(-c4ccc5oc(C)nc5c4)c3c2)C1")
7.34
>>> reading("COc1cccc(F)c1CN1CCCC(NC(=O)c2ccc3[nH]nc(-c4ccc5c(c4)CCO5)c3c2)C1 (stereo not shown)")
7.48
>>> reading("O=C(N[C@@H]1CCCN(Cc2ccccc2)C1)c1ccc2[nH]nc(-c3ccncc3)c2c1")
8.24

====

Biological target: ERK protein (Mus musculus, UniProt P63085)
Sequence (P63085 2-358 limits assumed): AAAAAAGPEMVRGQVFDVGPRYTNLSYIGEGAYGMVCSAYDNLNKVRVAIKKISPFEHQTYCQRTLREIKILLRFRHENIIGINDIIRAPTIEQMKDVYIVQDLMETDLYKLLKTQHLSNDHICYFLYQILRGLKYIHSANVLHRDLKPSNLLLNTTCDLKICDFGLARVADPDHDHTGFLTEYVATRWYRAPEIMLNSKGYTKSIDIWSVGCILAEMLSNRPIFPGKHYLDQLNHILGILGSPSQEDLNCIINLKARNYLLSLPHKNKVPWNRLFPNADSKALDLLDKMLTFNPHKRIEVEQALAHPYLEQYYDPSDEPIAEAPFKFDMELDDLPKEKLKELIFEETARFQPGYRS
Experiment: TdF (Temperature Dependence Fluorescence, thermal shift) assay for ERK
Type: binding
Conditions: 3 μM ERK protein, uncertainty estimated ±50%, read-out: Kd TdF
compounds and their reported Kd
observable: Kd (nM)

>>> reading("CC(=O)Nc1cc(-c2n[nH]c3ccc(C(=O)N[C@@H]4CCCN(Cc5c(F)cccc5F)C4)cc23)ccc1O")
1.29
>>> reading("COc1cc(-c2n[nH]c3ccc(C(=O)N[C@@H]4CCCN(Cc5ccccc5F)C4)cc23)ccn1")
0.81
>>> reading("COc1cccc(F)c1CN1CC(NC(=O)c2ccc3[nH]nc(-c4ccc5nccn5c4)c3c2)CC(C(=O)O)C1 (centres unmarked)")
0.26
>>> reading("COc1cccc(F)c1CN1CCC[C@@H](NC(=O)c2ccc3[nH]nc(-c4ccc(O)c(NC(C)=O)c4)c3c2)C1")
0.66
>>> reading("[2H]C(c1c(F)cccc1OC)N1CCC[C@@H](NC(=O)c2ccc3[nH]nc(-c4ccnc(C)c4)c3c2)C1 (some centres unmarked)")
0.35
>>> reading("COc1cccc(F)c1CN1CCC[C@@H](NC(=O)c2ccc3[nH]nc(-c4ccc(S(=O)(=O)N(C)C)cc4)c3c2)C1")
2.63
>>> reading("COc1cccc(F)c1CN1C[C@H](C)C[C@@H](NC(=O)c2ccc3[nH]nc(-c4ccc5nn(C)cc5c4)c3c2)C1")
0.39
>>> reading("O=C(N[C@@H]1CCCN(Cc2ccccc2F)C1)c1ccc2[nH]nc(-c3ccc4c(c3)CCO4)c2c1")
0.61

====

Values of IC50 reported for fully phosphorylated, active Mouse ERK2 protein (Mus musculus (Mouse), UniProt P63085) appear below.
observable: IC50 (nM)

>>> reading("Cc1cc(-c2n[nH]c3ccc(C(=O)N[C@@H]4CCCN(C5CCc6ccccc65)C4)cc23)ccn1 (some centres unmarked)")
65.4
>>> reading("CNC(=O)[C@@H]1CC[C@@H](NC(=O)c2ccc3[nH]nc(-c4ccncc4)c3c2)CN1Cc1c(F)cccc1OC [drawing 383]")
2.41
>>> reading("COc1cccc(F)c1CN1C[C@H]2C[C@@H]1[C@H](NC(=O)c1ccc3[nH]nc(-c4ccc5nn(C)cc5c4)c3c1)C2")
527
>>> reading("COC(=O)[C@@H]1CC[C@@H](NC(=O)c2ccc3[nH]nc(-c4ccncc4)c3c2)CN1Cc1c(F)cccc1OC")
40.5
>>> reading("CN1CC(NC(=O)c2ccc3[nH]nc(-c4ccncc4)c3c2)CC(c2ccccc2)C1 (centres unmarked) [drawing 158]")
2.6
>>> reading("COc1cccc(F)c1CN1CCC(F)C(NC(=O)c2ccc3[nH]nc(-c4ccc5nccn5c4)c3c2)C1 (centres unmarked)")
16.3
>>> reading("O=C(NC12CC1CCN(Cc1ccccc1)C2)c1ccc2[nH]nc(-c3ccc4nccn4c3)c2c1 (centres unmarked)")
200
>>> reading("O=C(NC1CCCCN(CC2CCc3ccccc32)C1)c1ccc2[nH]nc(-c3ccncc3)c2c1 (centres unmarked)")
85.4
>>> reading("COc1cccc(F)c1CN1CCC[C@@H](NC(=O)c2ccc3[nH]nc(-c4ccc5ncsc5c4)c3c2)C1")
28.2
>>> reading("CCNC(=O)[C@@H]1CC[C@@H](NC(=O)c2ccc3[nH]nc(-c4ccncc4)c3c2)CN1Cc1ccccc1 [drawing 353]")
48.3
>>> reading("COC[C@H]1CC[C@@H](NC(=O)c2ccc3[nH]nc(-c4ccncc4)c3c2)CN1Cc1c(F)cccc1OC")
456
>>> reading("CC(C)Oc1ccc(-c2n[nH]c3ccc(C(=O)N[C@@H]4CNC[C@H](c5ccccc5)C4)cc23)cc1")
45.1
>>> reading("COc1cccc(F)c1CN1CCC[C@@H](NC(=O)c2ccc3[nH]nc(-c4ccc5nncn5c4)c3c2)C1")
6.46
>>> reading("O=C(N[C@@H]1CCCN(c2ccccc2F)C1)c1ccc2[nH]nc(-c3ccncc3)c2c1")
62.3
>>> reading("COc1cccc(F)c1CN1C2CCC(NC(=O)c3ccc4[nH]nc(-c5ccnc(C)c5)c4c3)C1CC2 (centres unmarked)")
20.4
>>> reading("O=C(N[C@@H]1CNCC[C@H]1c1ccccc1)c1ccc2[nH]nc(-c3ccc4[nH]ncc4c3)c2c1")
13.7
>>> reading("COc1cccc(F)c1CN1C[C@H](C)C[C@H](NC(=O)c2ccc3[nH]nc(-c4ccc5nsnc5c4)c3c2)C1")
73.6

====

Target: ERK protein (Mus musculus, UniProt P63085)
Test: TdF (Temperature Dependence Fluorescence, thermal shift) assay for ERK
Assay type: binding
Settings: 3 μM ERK protein, uncertainty estimated ±50%, read-out: Kd TdF
pKd: −log10 of the molar value.
compounds and their reported pKd
observable: pKd

>>> reading("O=C(NC1CNCC(c2ccccc2)C1)c1ccc2[nH]nc(-c3ccncc3)c2c1 (centres unmarked)")
9.10
>>> reading("Cn1cc(CN2CCC[C@@H](NC(=O)c3ccc4[nH]nc(-c5ccc6c(c5)CCO6)c4c3)C2)c2ccccc21")
7.96
>>> reading("CN1CC(NC(=O)c2ccc3[nH]nc(-c4ccncc4)c3c2)CC(c2ccccc2)C1 (centres unmarked) [drawing 158]")
8.85
>>> reading("COc1cccc(F)c1CN1CCCC(NC(=O)c2ccc3[nH]nc(-c4ccc5c(c4)CCO5)c3c2)C1 (centres unmarked)")
9.28
>>> reading("CCc1cc(-c2n[nH]c3ccc(C(=O)N[C@@H]4CCCN(Cc5ccccc5F)C4)cc23)ccn1")
9.40
>>> reading("COc1cccc(F)c1CN1CCC[C@@H](NC(=O)c2ccc3[nH]nc(-c4ccc5nc(C)oc5c4)c3c2)C1")
10.00
>>> reading("O=C(N[C@@H]1CCCN(Cc2ccccc2F)C1)c1ccc2[nH]nc(-c3ccnc(C(F)(F)F)c3)c2c1")
8.18
>>> reading("O=C(N[C@@H]1CCCN(Cc2ccccc2F)C1)c1ccc2[nH]nc(-c3ccnc(Cl)c3)c2c1")
9.24

====

Biological target: UniProt P63085
pIC50: −log10 of the molar value.
observable: pIC50

>>> reading("O=C(N[C@H]1CCCN(Cc2ccccc2)C1)c1ccc2[nH]nc(-c3ccncc3)c2c1")
6.31
>>> reading("COc1cccc(F)c1CN1CCC[C@@H](NC(=O)c2ccc3[nH]nc(-c4ccnc(C)c4)c3c2)C1")
8.30
>>> reading("COc1cccc(F)c1CN1CCCCC(NC(=O)c2ccc3[nH]nc(-c4ccncc4)c3c2)C1 (centres unmarked)")
6.64
>>> reading("Cc1cc(-c2n[nH]c3ccc(C(=O)NC4CC[C@H]5CC[C@@H]4N5Cc4ccccc4F)cc23)ccn1 (some centres unmarked)")
8.04
>>> reading("Cc1cc(-c2n[nH]c3ccc(C(=O)N[C@@H]4CCCN(Cc5csc6ccccc56)C4)cc23)ccn1")
7.73
>>> reading("COc1cccc(F)c1CN1CCC[C@@H](NC(=O)c2ccc3[nH]nc(-c4ccc5nc(C(F)(F)F)nn5c4)c3c2)C1")
6.08
>>> reading("O=C(N[C@@H]1CCCNC1)c1ccc2[nH]nc(-c3ccncc3)c2c1")
6.08
>>> reading("Cn1cc(-c2n[nH]c3ccc(C(=O)N[C@@H]4CCCN(Cc5ccccc5F)C4)cc23)ccc1=O")
7.68
>>> reading("COc1cccc(F)c1CN1CC(NC(=O)c2ccc3[nH]nc(-c4ccc5nccn5c4)c3c2)CCC1C1CC1 (centres unmarked)")
7.31
>>> reading("O=C(CN1CCCCC(NC(=O)c2ccc3[nH]nc(-c4ccncc4)c3c2)C1)c1ccccc1 (centres unmarked)")
7.46
>>> reading("[2H]C(c1c(F)cccc1OC)N1CCC[C@@H](NC(=O)c2ccc3[nH]nc(-c4ccnc(C)c4)c3c2)C1 (some centres unmarked)")
7.88
>>> reading("COc1cccc(F)c1CN1CCC(O[Si](C)(C)C(C)(C)C)C(NC(=O)c2ccc3[nH]nc(-c4ccc5nccn5c4)c3c2)C1 (centres unmarked)")
6.50
>>> reading("COc1cccc(F)c1CN1C[C@@H](C)C[C@@H](NC(=O)c2ccc3[nH]nc(-c4ccn5ncnc5c4)c3c2)C1")
7.82
>>> reading("O=C(N[C@@H]1CCCN(Cc2ccccc2F)C1)c1ccc2[nH]nc(-c3ccc4c(c3)CCO4)c2c1")
7.28
>>> reading("O=C(N[C@@H]1CCCN(Cc2ncon2)C1)c1ccc2[nH]nc(-c3ccncc3)c2c1")
7.30
>>> reading("COc1cccc(F)c1CN1CCC[C@@H](NC(=O)c2ccc3[nH]nc(-c4ccc(S(C)(=O)=O)cc4)c3c2)C1")
6.71
>>> reading("O=C(N[C@@H]1CC[C@@H](C(=O)NCc2ccccc2)N(Cc2ccccc2)C1)c1ccc2[nH]nc(-c3ccncc3)c2c1 [drawing 352]")
7.32
